experiment: gradient 5% acetonitrile 3 min, to 50% in 2 min, to 85% in 15 min, held 3 min, 100 µL/min; conditions: column: Zorbax Extend-C18 2.1 x 50 mm; eluents: water / acetonitrile, 0.1% formic acid
compounds and their reported RP-LC retention time
Only the number, expressed in s, is required.

1. CCCCn1cc(S(=O)(=O)N2CCN(c3ccccc3)CC2)c2cccnc21 ... 1120
2. O=C(Nc1ccc(F)cc1F)C1CCN(C(=O)c2cccn2-c2cccnc2)CC1 ... 696
3. CCNC(=O)Nc1ccc(OCC(=O)NCc2cc(OC)cc(OC)c2)nc1 ... 691
4. COc1ccc(CC(=O)Nc2ccc(-c3nc(Cn4cccn4)c(C)o3)cc2)cc1 ... 838

Turning now to a further compound:
For this compound ( O=C(Nc1cc(C(F)(F)F)ccc1Cl)c1cccc(Oc2ncccn2)c1 ), measured RP-LC retention time is 900

----------
assay: gradient 5% acetonitrile 3 min, to 50% in 2 min, to 85% in 15 min, held 3 min, 100 µL/min; details: column: Zorbax Extend-C18 2.1 x 50 mm; eluents: water / acetonitrile, 0.1% formic acid
experimental.readout: RP-LC retention time
Number first, unit second.

Answered examples (5):
1. O=C(c1ccsc1)N1[C@H]2CC[C@@H]1c1cnc(-c3ccc(F)cc3)nc1C2 ... 952 s
2. COc1ccc(Cn2nc3ccc(S(=O)(=O)N4CCCCCC4)cn3c2=O)cc1 ... 935 s
3. O=C(Nc1cccc(F)c1)c1n[nH]nc1Nc1cccc(F)c1 ... 1050 s
4. CCC(=O)NCc1nc2c(n1CC)CN(C(=O)c1cccc(Br)c1)CC2 ... 596 s
5. O=S(=O)(c1cc(F)ccc1F)N1CCC(c2noc(COCC3CC3)n2)CC1 ... 1000 s

For this molecule ( CCOc1ccccc1-c1nc(-c2ccc3ncn(CC)c3c2)no1 ), measured RP-LC retention time is 788 s

For this molecule ( CC(C)Cn1c(=O)c(C(=O)NCc2cccc(C(F)(F)F)c2)nc2cccnc21 ), measured RP-LC retention time is 1030 s

For this molecule ( CCc1nc(-c2c(C)cc(C)nc2NC(=O)c2ccc(F)cc2)no1 ), measured RP-LC retention time is 812 s

For this molecule ( CCCn1cc(C(=O)NCCOC)c(S(=O)(=O)N2CCN(c3ccccc3OCC)CC2)n1 ), measured RP-LC retention time is 959 s

For this molecule ( Cc1nnc(C(C)C)n1C1CC2CCC(C1)N2CC[C@H](NC(=O)C1CCC(F)(F)CC1)c1ccccc1 (some centres undefined) ), measured RP-LC retention time is 674 s

For this molecule ( O=C(NC1CCCC1)C1CCCCN1S(=O)(=O)c1ccc(F)cc1 (centres undefined) ), measured RP-LC retention time is 941 s

For this molecule ( CCCc1noc(-c2ccc3nnc(CC(=O)Nc4cc(C)cc(C)c4)n3c2)n1 ), measured RP-LC retention time is 947 s

For this molecule ( Fc1cccc(Cn2cc(-c3noc(-c4ccc5c(c4)OCO5)n3)nn2)c1 ), measured RP-LC retention time is 962 s

For this molecule ( CCN1CCN(C(=O)Cc2c(C(=O)O)c(C)cn2CC)CC1 ), measured RP-LC retention time is 568 s

For this molecule ( O/N=C(\CC(O)(C(F)(F)F)C(F)(F)F)c1cccc(Cl)c1 ), measured RP-LC retention time is 944 s

For this molecule ( O=C(O)c1cnc(N2CCOCC2)nc1-c1cccnc1 ), measured RP-LC retention time is 569 s

For this molecule ( O=C(NCc1ccc(Cl)cc1)c1cc2sccc2n1Cc1ccc(F)cc1 ), measured RP-LC retention time is 1170 s

For this molecule ( Cc1cc(Cl)ccc1NC(=O)N1CCC(c2nc3ccncc3n2C(C)C)C1 (centres undefined) ), measured RP-LC retention time is 648 s

----------
compounds and their reported RP-LC retention time
assay: gradient 5% acetonitrile 3 min, to 50% in 2 min, to 85% in 15 min, held 3 min, 100 µL/min; details: column: Zorbax Extend-C18 2.1 x 50 mm; eluents: water / acetonitrile, 0.1% formic acid
Only the number, expressed in s, is required.

Answered examples (10):
1. COc1cc(Cl)c(CC2C(=O)Nc3ccccc32)cc1OC (stereo not given) ... 900
2. O=C(NCc1ccccc1Cl)C(=O)NCC1CCN(C(=O)COc2ccccc2)CC1 ... 566
3. CC1=C(c2cccc(Cl)c2)S(=O)(=O)N=C1N1CCCN(C(=O)c2ccccn2)CC1 ... 760
4. Cc1cc(OCC(=O)N2CCC3(O)CCCCC3C2)c2c3c(c(=O)oc2c1)CCC3 (stereo not given) ... 803
5. COc1ccc(-c2c(C)noc2NC(C)=O)cc1S(=O)(=O)Nc1ccc(C)cc1Br ... 832
6. COc1ccc(-c2cn3ccn(-c4ccc(OC)c(Cl)c4)c(=O)c3n2)cc1 ... 1240
7. COC(=O)c1ccc(S(=O)(=O)NCc2nc(C)no2)cc1 ... 659
8. CCOc1ccccc1NC(=O)N1CCc2nc(-c3ccccc3)ncc2C1 ... 1010
9. CCOc1ccc(NC(=O)c2cc(C)n3nccc3n2)cc1 ... 917
10. CC(C)Oc1ccccc1CN1CCC2(CC1)CN(C)CC2c1nnc(C(C)C)o1 (stereo not given) ... 569

For this compound ( Cc1ccc(-c2noc(CN3N=NC4C(=O)N(c5ccc(Br)cc5)C(=O)C43)n2)cc1C (stereo not given) ), measured RP-LC retention time is 1130

For this compound ( O=c1c2cc(-c3cccs3)nn2cnn1Cc1nc(-c2cccc(C(F)(F)F)c2)no1 ), measured RP-LC retention time is 1140

For this compound ( COc1ccc(N2CCN(c3cc(SCC(=O)Nc4cccc(Cl)c4F)ncn3)CC2)cc1 ), measured RP-LC retention time is 1190

For this compound ( CS(=O)(=O)N1CCC(C(=O)Nc2ccccc2)Oc2ccc(Cl)cc21 (stereo not given) ), measured RP-LC retention time is 887

For this compound ( COc1ccc(CC(=O)N2C[C@@H]3C[C@H](NC(=O)c4ccccc4)[C@H]2C3)cc1 ), measured RP-LC retention time is 725

For this compound ( N#Cc1ccc(CN2CCC3(CC2)CN(C2CCC2)CC3CO)cc1 (stereo not given) ), measured RP-LC retention time is 606

For this compound ( CCN1C(=O)C(C)(C(=O)NCc2ccc(C)cc2)Oc2cccnc21 (stereo not given) ), measured RP-LC retention time is 912

----------
compounds and their reported RP-LC retention time
test: gradient 5% acetonitrile 3 min, to 50% in 2 min, to 85% in 15 min, held 3 min, 100 µL/min; settings: column: Zorbax Extend-C18 2.1 x 50 mm; eluents: water / acetonitrile, 0.1% formic acid
Only the number, expressed in s, is required.

1) CCC(=O)n1nc(C)c(S(=O)(=O)N2CCOCC2)c1C ... 848

For this compound ( O=C(c1ccccn1)N1CC(c2nc(-c3ccccc3)no2)C2(CCOCC2)C1 (stereo not given) ), measured RP-LC retention time is 743

For this compound ( CC(=O)N1CCC(C(=O)Nc2cccc(OCc3nnc(-c4ccc(Cl)cc4)o3)c2)CC1 ), measured RP-LC retention time is 762

For this compound ( O=C(c1cccs1)N1CCCCC1c1nncn1CC1CC1 (stereo not given) ), measured RP-LC retention time is 690

For this compound ( COc1ccc(S(=O)(=O)NCc2ccc3c(c2)CCN3C(=O)c2ccccc2)cc1 ), measured RP-LC retention time is 904

----------
assay: gradient 5% acetonitrile 3 min, to 50% in 2 min, to 85% in 15 min, held 3 min, 100 µL/min; settings: column: Zorbax Extend-C18 2.1 x 50 mm; eluents: water / acetonitrile, 0.1% formic acid
experimental.readout: RP-LC retention time (s)
Only the number, expressed in s, is required.

Answered examples (4):
1) COc1cccc(S(=O)(=O)N2CCC3(CC2)C(OC)C(=O)N3c2cccc(F)c2)c1 (stereo not given) ... 1040
2) CCc1ccccc1NC(=O)Cn1c(NCCCc2ccccc2)nc(C)cc1=O ... 857
3) CCn1cc(-c2ccc(OC)cc2)cc1C(=O)N1CCCN(C)CC1 ... 627
4) Cc1ccc(S(=O)(=O)N2CCC3(CC2)NCCN=C3NCc2ccc(F)cc2)cc1 ... 709

Turning now to a further molecule:
For this molecule ( Cc1ccc(Cl)cc1NC(=O)N(C)CCO ), measured RP-LC retention time is 737

----------
compounds and their reported RP-LC retention time
assay: gradient 5% acetonitrile 3 min, to 50% in 2 min, to 85% in 15 min, held 3 min, 100 µL/min; conditions: column: Zorbax Extend-C18 2.1 x 50 mm; eluents: water / acetonitrile, 0.1% formic acid
Only the number, expressed in s, is required.

1. CC(C)c1ccc(N2C(=O)CN(S(C)(=O)=O)CC2(C)C(=O)NCc2ccccc2)cc1 (stereo not given) ... 860

For this compound ( CCc1ccc(C(C)NC(=O)C2CCN(Cc3cn(C)c4ccccc34)CC2)cc1 (stereo not given) ), measured RP-LC retention time is 764

For this compound ( CCOc1ccc(N2CCCCn3c2nc2c3c(=O)n(CCOC)c(=O)n2C)cc1 ), measured RP-LC retention time is 853

For this compound ( O=S(=O)(c1cc(-c2noc(C3CC3)n2)cs1)N1CCN(c2ccccn2)CC1 ), measured RP-LC retention time is 719

For this compound ( CCCC(C)C(=O)NC1CCN(C2=NS(=O)(=O)C(c3ccc(C)c(C)c3)=C2C)CC1 (stereo not given) ), measured RP-LC retention time is 927

The measurements presented in this section are drawn from the METLIN SMRT retention time set (Domingo-Almenara et al. 2019).
